In this section, each of the molecules is paired with its reported growth inhibition.
# method_description: NCI Yeast Anticancer Drug Screen. Data for the rad50 strain (AID 155);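 also: 0% = growth of vehicle-only cultures of the same strain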
# applied_conditions: S. cerevisiae rad50 strain growth inhibition; at 5.0 µM (retest, dose inferred, filed as 0.5); hits give high values
This is part of a sample that, as a whole, favours compounds with a hit. Of some 79,000 tested, about 15% had one in any assay.
Give just the number in %; leave the unit off.

Look over these answered cases.
// query Entry Cc1ccc(Nc2n[nH]c(=S)s2)cc1F has what growth inhibition?
// result 37

// query Entry CC(=O)Nc1ccc(C(=O)CCl)cc1 has what growth inhibition?
// result 98

// query Entry O=[N+]([O-])c1ccc(Oc2ccccc2Cl)c([N+](=O)[O-])c1 has what growth inhibition?
// result 13

// query Entry CC(CSc1n[nH]c(=S)s1)c1ccccc1 (stereo not drawn) has what growth inhibition?
// result 7

// query Entry COc1ccc(/C=C2/C(=O)ON=C2C)cc1 has what growth inhibition?
// result 12

// query Entry S=C(S)OCN1CCOCC1 has what growth inhibition?
// result 80

Further cases:
// query Entry CC1C(c2ccccc2)OCCN1C(=S)Nc1ccc(S(=O)(=O)N2CCCCC2)cc1 (stereo not drawn) has what growth inhibition?
// result 46

// query Entry O=C(Cc1nc2cc(Cl)c(Cl)cc2nc1CC(=O)c1ccccc1)c1ccccc1 has what growth inhibition?
// result -7

// query Entry CC1=CC(=O)C=CC1(C)C(Cl)(Cl)Cl (stereo not drawn) has what growth inhibition?
// result -16

// query Entry Nc1ccc(C(=O)/C=C/c2ccccc2)cc1 has what growth inhibition?
// result 6

// query Entry Cc1ccc(Nc2ccc(O)c3c2C(=O)c2c(O)ccc(Nc4ccc(C)cc4)c2C3=O)cc1 has what growth inhibition?
// result 5

// query Entry COc1cc(N(CCC#N)CCC#N)ccc1/C(N=Nc1ccc(C(=O)O)cc1)=N/NC(=O)c1cc(Br)ccc1O has what growth inhibition?
// result 9

----------
# method_description: NCI Yeast Anticancer Drug Screen. Data for the sgs1 mgt1 strain (AID 161);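 also: 0% = growth of cultures given vehicle only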
# applied_conditions: S. cerevisiae sgs1 mgt1 strain, at 5.0 µM (retest, dose inferred, filed as 0.5)
About 79,000 compounds went through this panel and 15% of them were active in at least one assay; those are over-represented in the sample as a whole. Active and inactive are the calls of the source. Rule as the data show it: active = growth inhibition above about 70%; inactive = the rest.
Permitted responses: class 1 = active, class 0 = inactive

Previously resolved entries follow.
// query Kindly provide the recorded test outcome for the following molecule: CCC(=O)c1cc([N+](=O)[O-])c(Br)s1
// result class 1

// query Kindly provide the recorded test outcome for the following molecule: OC(c1cc(-c2ccc(C(F)(F)F)cc2)nc(C(F)(F)F)c1)C1CCCCN1 (stereo not given)
// result class 0

// query Kindly provide the recorded test outcome for the following molecule: O=C1/C(=C/c2ccccn2)CCc2ccccc21
// result class 0

// query Kindly provide the recorded test outcome for the following molecule: COc1ccc2nc3c4c(nccc4c2c1)-c1ncccc1C3=O
// result class 0

// query Kindly provide the recorded test outcome for the following molecule: NCCN1C(=O)CNC1=S
// result class 0

Further cases:
// query Kindly provide the recorded test outcome for the following molecule: CC(C)(C)c1ccc(CCO)cc1
// result class 0

// query Kindly provide the recorded test outcome for the following molecule: Cc1ccc(NC(=S)C#N)cc1Cl
// result class 0

// query Kindly provide the recorded test outcome for the following molecule: CN(C)c1ccc(SC#N)cc1
// result class 0

----------
# method_description: NCI Yeast Anticancer Drug Screen. Data for the bub3 strain (AID 167)
# applied_conditions: S. cerevisiae bub3 mutant strain, at 50.0 µM (retest, dose inferred, filed as 5.0), hits give high values
Compounds without any hit were thinned out: in the full panel of roughly 79,000, 15% have a hit.
experimental_readout: growth inhibition (%)
Give just the number in %; leave the unit off.

Look over these answered cases.
// query Entry CC(O)C(O)C(O)C(O)C(O)C(=O)NNc1ccccc1 (configuration not stated) has what growth inhibition?
// result 91

// query Entry CCC(C)(CC)c1ccc(O)cc1 has what growth inhibition?
// result 44

// query Entry Cc1ccc(/C=N/Nc2cc(C)c3cccc(C)c3n2)s1 has what growth inhibition?
// result 97

Further cases:
// query Entry CCCC(=O)c1ccc([N+](=O)[O-])o1 has what growth inhibition?
// result 100

// query Entry NCCN1C(=O)CNC1=S has what growth inhibition?
// result -5

----------
# method_description: NCI Yeast Anticancer Drug Screen. Data for the sgs1 mgt1 strain (AID 161);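 also: 0% = growth of cultures given vehicle only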
# applied_conditions: S. cerevisiae sgs1 mgt1 strain, at 50.0 µM
About 79,000 compounds went through this panel and 15% of them were active in at least one assay; those are over-represented in the sample as a whole. The source made the active and inactive calls. Cut-off read from the data, not from the text of the source: active = growth inhibition above about 70%; inactive = the rest.
Permitted responses: y = active, n = inactive

// query Kindly provide the recorded test outcome for the following compound: CCCCC(CCc1ccc([N+](=O)[O-])cc1)(C(C)=O)C(=O)OCC (stereo not drawn)
// result n

// query Kindly provide the recorded test outcome for the following compound: NC1=C(Br)C(=O)c2ncccc2C1=O
// result y

// query Kindly provide the recorded test outcome for the following compound: CCC[CH2][Sn]([CH2]CCC)([CH2]CCC)[O]C(=O)C(OC(C)=O)c1ccccc1 (stereo not drawn)
// result y

// query Kindly provide the recorded test outcome for the following compound: O=C(CCl)N1c2ccccc2Sc2c1ccc1ccccc21
// result y

// query Kindly provide the recorded test outcome for the following compound: O=C(Cc1nc2cc(Cl)c(Cl)cc2nc1CC(=O)c1ccccc1)c1ccccc1
// result y

// query Kindly provide the recorded test outcome for the following compound: Clc1ccc(Cc2nc3ccccc3s2)cc1
// result y

// query Kindly provide the recorded test outcome for the following compound: C/C(=N\NC(=S)N1CCC1)c1ccccn1
// result y

// query Kindly provide the recorded test outcome for the following compound: CN(C)CCSC1=Nc2ccc(Cl)cc2C(c2ccccc2Cl)N(C)C1 (stereo not drawn)
// result y

// query Kindly provide the recorded test outcome for the following compound: NC(=S)N/N=C/c1ncccc1O
// result n

// query Kindly provide the recorded test outcome for the following compound: CC(=O)Nc1ccc(C(=O)CCl)cc1
// result y

Further cases:
// query Kindly provide the recorded test outcome for the following compound: C=C(C(N)=O)C(N)C(=O)O (stereo not drawn)
// result n

// query Kindly provide the recorded test outcome for the following compound: C=[CH][Sn]([CH]=C)([O]c1cccc2cccnc12)[O]c1cccc2cccnc12
// result y

// query Kindly provide the recorded test outcome for the following compound: Oc1ccc2c(c1)CCc1ccccc1-2
// result y

// query Kindly provide the recorded test outcome for the following compound: CCC1CCCCN1C(=S)N/N=C(\C)c1ccccn1 (stereo not drawn)
// result y

// query Kindly provide the recorded test outcome for the following compound: O=C(/C(Cl)=N/O)c1ccc(-c2ccccc2)cc1
// result y

----------
In this section, each of the compounds is paired with its reported growth inhibition.
# method_description: NCI Yeast Anticancer Drug Screen. Data for the sgs1 mgt1 strain (AID 161);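 also: 0% = growth of cultures given vehicle only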
# applied_conditions: S. cerevisiae sgs1 mgt1 strain, at 5.0 µM (retest, dose inferred, filed as 0.5), hits give high values
The panel holds about 79,000 compounds, 15% with a hit somewhere; the sample as a whole holds those more often.
Give just the number in %; leave the unit off.

Look over these answered cases.
// query Entry CC(C)(C)c1cc([N+](=O)[O-])c(O)c([N+](=O)[O-])c1 has what growth inhibition?
// result 15

// query Entry CCCCNC(=O)C(C)O (stereo unspecified) has what growth inhibition?
// result 0

// query Entry O=C(OC12CC3CC(CC(C3)C1)C2)c1ccc(NCc2cc(O)ccc2O)cc1 has what growth inhibition?
// result 39

Further cases:
// query Entry Nc1ccc(Oc2ccccc2)c(Cl)c1 has what growth inhibition?
// result 4

// query Entry CCCN(CCC)C(=O)c1ccc(C)cc1 has what growth inhibition?
// result 2

// query Entry [O-][n+]1cccc2cccc(O)c21 has what growth inhibition?
// result 1

----------
# method_description: NCI Yeast Anticancer Drug Screen. Data for the mec2-1 strain (AID 157)
# applied_conditions: S. cerevisiae mec2-1 strain, at 50.0 µM (retest, dose inferred, filed as 5.0), hits give high values
About 79,000 compounds went through this panel and 15% of them were active in at least one assay; those are over-represented in the sample as a whole.
In this section, each of the compounds is paired with its reported growth inhibition.
Give just the number in %; leave the unit off.

// query Entry Oc1ccc(Cc2ccc(Cl)cc2)c(O)c1 has what growth inhibition?
// result 99

Further cases:
// query Entry CC(C)=CCCC(C)C1=C(O)C(=O)C(C)=CC1=O (configuration not stated) has what growth inhibition?
// result 98

----------
# method_description: NCI Yeast Anticancer Drug Screen. Data for the mlh1 rad18 strain (AID 175)
# applied_conditions: S. cerevisiae mlh1 rad18 strain growth inhibition; at 50.0 µM (retest, dose inferred, filed as 5.0); hits give high values
The panel holds about 79,000 compounds, 15% with a hit somewhere; the sample as a whole holds those more often. Active and inactive are the calls of the source. Rule as the data show it: active = growth inhibition above about 70%; inactive = the rest.
In this section, each of the compounds is paired with its reported growth inhibition.

// query Entry CCCc1cc(=O)oc2c3c(c4c(c12)OC(C)(C)CC4)OC(C)[C@H](C)[C@@H]3O (stereo partly specified) has what growth inhibition?
// result 94% (active)

Further cases:
// query Entry C=c1c2ccccc2oc2nc3[nH]c(N)c(C#N)c(N)c3c(=N)c12 has what growth inhibition?
// result 75% (active)

// query Entry Oc1c(C(Nc2ccccc2)c2ccccc2)ccc2cccnc12 (stereo unspecified) has what growth inhibition?
// result 92% (active)

// query Entry Oc1ccc(Br)cc1Sc1cc(Br)ccc1O has what growth inhibition?
// result 99% (active)
